- target or test system: 5-hydroxytryptamine receptor 2C (Homo sapiens, UniProt P28335)
- Sequence (P28335 whole entry): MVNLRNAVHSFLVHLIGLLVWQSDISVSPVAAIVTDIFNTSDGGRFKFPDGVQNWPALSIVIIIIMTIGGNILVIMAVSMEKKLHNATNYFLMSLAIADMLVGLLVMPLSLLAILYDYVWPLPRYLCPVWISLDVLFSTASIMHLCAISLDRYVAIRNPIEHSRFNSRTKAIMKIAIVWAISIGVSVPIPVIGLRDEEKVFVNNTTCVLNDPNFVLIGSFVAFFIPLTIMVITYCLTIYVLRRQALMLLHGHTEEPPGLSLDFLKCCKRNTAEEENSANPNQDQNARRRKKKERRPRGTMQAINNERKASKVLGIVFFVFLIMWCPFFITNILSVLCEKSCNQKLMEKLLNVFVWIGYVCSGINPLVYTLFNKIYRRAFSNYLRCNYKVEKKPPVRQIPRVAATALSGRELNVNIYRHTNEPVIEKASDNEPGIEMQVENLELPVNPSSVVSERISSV
- measurement notes: Agonist activity at human recombinant 5HT2C receptor expressed in CHO K1 cells assessed as calcium mobilisation by FLIPR assay
- Format: functional, cell-based
pEC50: −log10 of the molar value.
Kind request: treat 7 as inclusive, so pEC50 at 7 or higher is satisfied, anything lower is not satisfied.

Cn1c(N2CCNCC2)nc(CCc2cccc(Cl)c2)cc1=O :: not satisfied
Cc1ccccc1CCc1nc(N2CCNC[C@H]2C)cc(=O)n1C :: satisfied
C[C@@H]1CNCCN1c1ccc(=O)n(CCOc2ccccc2C(F)(F)F)n1 :: satisfied
Cc1cc(=O)n(CCCOc2ccc(Cl)cc2)c(N2CCNCC2)n1 :: not satisfied
Cc1cc(=O)n(CCCc2ccccc2)c(N2CCNCC2)n1 :: not satisfied

Query :: Assess whether reported pEC50 for "Cn1c(COc2ccccc2C(F)(F)F)nc(N2CCNCC2)cc1=O" sits at 7 or higher.
Result :: satisfied

Query :: Confirm if pEC50 reported for the compound "Cn1c(COc2ccc(Cl)cc2)nc(N2CCNCC2)cc1=O" is 7 or above.
Result :: not satisfied

Query :: Dear colleague, could you confirm whether "Cc1cc(=O)n(CCCOCc2ccccc2)c(N2CCNCC2)n1" has pEC50 at or above 7?
Result :: not satisfied

Query :: Please indicate if the recorded pEC50 for "Cn1c(COc2ccc(C(F)(F)F)cc2)nc(N2CCNCC2)cc1=O" meets or exceeds 7.
Result :: not satisfied

Query :: Please check the record "Cc1cc(=O)n(CCCOc2ccc(F)cc2)c(N2CCNCC2)n1" and state if its pEC50 is at or above 7.
Result :: not satisfied

###

- measurement notes: Lipophilicity, log Dof the compound at pH 7.4
- Type: physicochemical
- condition parameters: buffer
quantity kind: logD

Solved cases below.
Cn1c(COc2ccc(C(F)(F)F)cc2)nc(N2CCNCC2)cc1=O :: 1.1
Cn1c(CCc2ccccc2)nc(N2CCNCC2)cc1=O :: 0.6
Cc1ccccc1CCc1nc(N2CCNC[C@H]2C)cc(=O)n1C :: 1.4
C[C@@H]1CNCCN1c1cc(=O)n(C)c(CCc2ccccc2Cl)n1 :: 1.6
Cc1cc(=O)n(CCCOc2ccc(F)cc2)c(N2CCNCC2)n1 :: 0.7

Sample "Cn1c(N2CCNCC2)nc(CCc2cccc(Cl)c2)cc1=O" ; logD observed: 1.3

# logD of "Cc1cc(=O)n(CCCOc2ccccc2)c(N2CCNCC2)n1" = 0.7

Kindly note the recorded logD for "CCn1c(CCc2ccccc2Cl)nc(N2CCNCC2)cc1=O" , which is 1.9

Summary for this compound, "Cc1ccc(F)cc1OCc1nc(N2CCNCC2)cc(=O)n1C" : logD is 1

Reported logD of "Cc1cc(=O)n(CCCOc2ccccc2)c(N2CCNC[C@H]2C)n1" : 0.9

// sample "Cn1c(CCc2cccc(Cl)c2)nc(N2CCNCC2)cc1=O" , its logD was 1.2

The reported logD of the compound "C[C@@H]1CNCCN1c1cc(=O)n(C)c(CCc2ccccc2C(F)(F)F)n1" was 1.8

Sure, the documented logD for "Cc1ccccc1OCc1nc(N2CCNCC2)cc(=O)n1C" is 0.8

Memo: "Cc1cc(=O)n(CCCOc2cccc(F)c2)c(N2CCNCC2)n1" , reported logD: 0.8

Record summary for "Cn1c(COc2cccc(C#N)c2)nc(N2CCNCC2)cc1=O" : reported logD = 0.3

In plain terms, "Cn1c(COc2ccccc2C(F)(F)F)nc(N2CCNCC2)cc1=O" has a documented logD of 1.4

What the record says about "Cc1cc(=O)n(CCCOc2ccccc2Cl)c(N2CCNCC2)n1" : logD is 1

Note to self: logD recorded for "Cn1c(COc2cccc(C(F)(F)F)c2)nc(N2CCNCC2)cc1=O" was 1.3

Lab book: logD of "Cn1c(COc2cc(F)ccc2Cl)nc(N2CCNCC2)cc1=O" noted as 1

logD recorded for this compound, "C[C@@H]1CNCCN1c1cc(=O)n(C)c(CCc2cccc(Cl)c2)n1" , is 1.6

The value of logD measured for the compound "CCn1c(COc2cc(F)ccc2Cl)nc(N2CCNCC2)cc1=O" turned out to be 1.4

The compound listed as "CCn1c(COc2cccc(C#N)c2)nc(N2CCNCC2)cc1=O" shows logD equal to 0.4

Record summary for "Cn1c(COc2ccccc2Cl)nc(N2CCNCC2)cc1=O" : reported logD = 0.8

Entry under test: "C[C@@H]1CNCCN1c1ccc(=O)n(CCOc2ccccc2C(F)(F)F)n1" . Its logD was 1.4

###

Below, each entry is listed alongside its reported microsomal CLint.
- measurement notes: Intrinsic clearance in human liver microsomes
- Assay type: ADME, Microsome

Here's what some known entries look like.
Cn1c(CCc2cccc(Cl)c2)nc(N2CCNCC2)cc1=O :: < 7 µL/min/mg
Cn1c(COc2ccccc2Cl)nc(N2CCNCC2)cc1=O :: 11 µL/min/mg
Cn1c(COc2cccc(C#N)c2)nc(N2CCNCC2)cc1=O :: < 7 µL/min/mg

Now consider the entry below.
For "CCn1c(CCc2ccccc2Cl)nc(N2CCNCC2)cc1=O" the compound record lists microsomal CLint as 30 µL/min/mg

###

This listing pairs compounds with measured efflux ratio.
- Test system: MDR1 (human)
- measurement notes: Efflux ratio, permeability from basolateral to apical over apical to basolateral side in MDCK cells expressing human MDR1 gene
- Format: ADME, cell-based, Canis lupus familiaris
- condition parameters: dog
API doc: respond with a numeric literal and nothing else, no unit.

// efflux ratio lookup, compound = "Cc1ccccc1CCc1nc(N2CCNC[C@H]2C)cc(=O)n1C" , result: 3.5

So for "Cn1c(CCc2cccc(Cl)c2)nc(N2CCNCC2)cc1=O" , the logged efflux ratio turned out to be 4

The compound listed as "C[C@@H]1CNCCN1c1cc(=O)n(C)c(CCc2cccc(Cl)c2)n1" shows efflux ratio equal to 3.7

// sample "Cn1c(CCc2ccccc2)nc(N2CCNCC2)cc1=O" , its efflux ratio was 3.4

Recorded result, "Cc1cc(=O)n(CCCOc2ccccc2)c(N2CCNCC2)n1" , efflux ratio: 1.6

###

- target or test system: UniProt Q12809
- Sequence (Q12809 whole entry): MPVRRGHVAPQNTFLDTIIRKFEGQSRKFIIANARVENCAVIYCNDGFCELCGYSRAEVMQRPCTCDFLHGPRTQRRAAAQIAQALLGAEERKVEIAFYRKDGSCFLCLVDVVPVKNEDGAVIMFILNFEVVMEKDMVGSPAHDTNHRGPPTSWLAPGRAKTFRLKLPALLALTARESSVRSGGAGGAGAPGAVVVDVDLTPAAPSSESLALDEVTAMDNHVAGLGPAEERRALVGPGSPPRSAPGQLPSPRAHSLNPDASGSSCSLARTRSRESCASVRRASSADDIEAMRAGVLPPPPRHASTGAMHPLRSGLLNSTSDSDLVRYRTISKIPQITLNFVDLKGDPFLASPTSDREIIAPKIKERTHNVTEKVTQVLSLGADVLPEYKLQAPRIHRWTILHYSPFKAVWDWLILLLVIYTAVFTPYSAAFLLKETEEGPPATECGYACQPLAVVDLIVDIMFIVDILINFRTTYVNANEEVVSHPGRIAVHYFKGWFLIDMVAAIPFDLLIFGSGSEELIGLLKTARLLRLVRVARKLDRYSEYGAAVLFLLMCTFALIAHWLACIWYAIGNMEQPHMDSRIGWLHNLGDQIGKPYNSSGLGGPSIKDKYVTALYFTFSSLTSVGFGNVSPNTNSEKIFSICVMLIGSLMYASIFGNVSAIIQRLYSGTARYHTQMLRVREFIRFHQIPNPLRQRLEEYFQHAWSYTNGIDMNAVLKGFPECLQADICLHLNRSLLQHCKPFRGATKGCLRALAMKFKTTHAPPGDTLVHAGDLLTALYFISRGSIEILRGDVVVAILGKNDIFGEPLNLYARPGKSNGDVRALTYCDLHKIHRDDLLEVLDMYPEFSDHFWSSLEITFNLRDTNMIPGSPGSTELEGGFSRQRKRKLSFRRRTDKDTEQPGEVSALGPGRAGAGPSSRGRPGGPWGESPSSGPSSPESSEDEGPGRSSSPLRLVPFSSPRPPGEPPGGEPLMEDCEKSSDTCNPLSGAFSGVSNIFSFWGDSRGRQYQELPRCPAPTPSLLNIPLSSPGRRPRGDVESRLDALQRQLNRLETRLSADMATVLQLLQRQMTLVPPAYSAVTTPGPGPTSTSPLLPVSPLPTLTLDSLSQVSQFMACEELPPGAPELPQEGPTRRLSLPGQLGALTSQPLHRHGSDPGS
pKi: −log10 of the molar value.
quantity kind: pKi

Form: compound = "C[C@@H]1CNCCN1c1cc(=O)n(C)c(COc2ccccc2C(F)(F)F)n1" ; pKi = < 4.89

###

Catalogue of logD readings, one per entry.
- measurement notes: Lipophilicity, log Dof the compound at pH 7.4
- Assay type: physicochemical
- condition parameters: buffer

Example entries begin here.
C[C@@H]1CNCCN1c1cc(=O)n(C)c(CCc2ccccc2)n1 :: 1
Cn1c(COc2cccc(Cl)c2)nc(N2CCNCC2)cc1=O :: 1
Cc1ccc(Cl)cc1OCc1nc(N2CCNCC2)cc(=O)n1C :: 1.5
Cn1c(COc2ccc(Cl)cc2)nc(N2CCNCC2)cc1=O :: 0.8
Cc1cc(=O)n(CCCOc2ccccc2F)c(N2CCNCC2)n1 :: 0.45

Proceed to the following item.
The molecule listed as "Cc1cc(=O)n(CCCOc2cccc(Cl)c2)c(N2CCNCC2)n1" shows logD equal to 1.2

###

- target or test system: 5-hydroxytryptamine receptor 2B (Homo sapiens, UniProt P41595)
- Sequence (P41595 whole entry): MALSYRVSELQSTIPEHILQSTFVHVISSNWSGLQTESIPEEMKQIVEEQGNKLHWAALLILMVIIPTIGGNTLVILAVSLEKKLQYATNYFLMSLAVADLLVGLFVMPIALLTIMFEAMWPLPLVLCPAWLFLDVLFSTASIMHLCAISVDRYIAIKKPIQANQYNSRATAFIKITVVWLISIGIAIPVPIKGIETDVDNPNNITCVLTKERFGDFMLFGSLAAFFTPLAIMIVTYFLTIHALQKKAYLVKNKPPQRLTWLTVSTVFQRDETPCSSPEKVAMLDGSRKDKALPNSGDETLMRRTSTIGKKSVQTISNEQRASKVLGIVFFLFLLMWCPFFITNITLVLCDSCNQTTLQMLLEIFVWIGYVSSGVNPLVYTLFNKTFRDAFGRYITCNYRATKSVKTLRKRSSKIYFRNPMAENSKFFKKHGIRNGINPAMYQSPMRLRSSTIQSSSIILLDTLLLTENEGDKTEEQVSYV
- measurement notes: Agonist activity at human recombinant 5HT2B receptor transfected in CHO K1 cells assessed as calcium mobilisation at 10 uM by FLIPR assay
- Type: functional, cell-based
Output rule met for records whose Activity is lower than 40%, rule not met for records at or above 40%.

C[C@@H]1CNCCN1c1cc(=O)n(C)c(CCc2ccccc2Cl)n1 :: rule met
CCn1c(CCc2ccccc2Cl)nc(N2CCNCC2)cc1=O :: rule met
Cn1c(CCc2ccccc2)nc(N2CCNCC2)cc1=O :: rule met
C[C@@H]1CNCCN1c1cc(=O)n(C)c(CCc2ccccc2)n1 :: rule met
Cc1ccccc1CCc1nc(N2CCNC[C@H]2C)cc(=O)n1C :: rule met

Query :: In plain terms, does "C[C@@H]1CNCCN1c1ccc(=O)n(CCOc2ccccc2C(F)(F)F)n1" come in under 40% for Activity?
Result :: rule met

Query :: Lab note: confirm whether the reported Activity for this molecule is below 40%, equality not counting. molecule: "Cn1c(CCc2cccc(Cl)c2)nc(N2CCNCC2)cc1=O"
Result :: rule met

Query :: In plain terms, does "Cc1cc(=O)n(CCCOc2ccccc2Cl)c(N2CCNCC2)n1" come in under 40% for Activity?
Result :: rule not met

Query :: Is the reported Activity for "Cc1cc(=O)n(CCCOc2ccccc2F)c(N2CCNCC2)n1" strictly below 40%?
Result :: rule met

Query :: Please let me know if "C[C@@H]1CNCCN1c1cc(=O)n(C)c(CCc2ccccc2C(F)(F)F)n1" shows Activity below 40%.
Result :: rule met

Query :: Please indicate whether the reported Activity of "C[C@@H]1CNCCN1c1cc(=O)n(C)c(CCc2cccc(Cl)c2)n1" is strictly below 40%.
Result :: rule met

Query :: In plain terms, does "Cc1cc(=O)n(CCCOc2ccccc2)c(N2CCNCC2)n1" come in under 40% for Activity?
Result :: rule not met
